Test system: Mus musculus
Assay: Antinociceptive activity in Swiss Webster mouse assessed as inhibition of morphine induced latency to tail withdrawal at 10 mg/kg, sc preincubated for 5 mins followed by morphine addition and measured after 20 mins by warm water tail immersion assay
Type: functional, organism-based
Conditions: time 25.0 min
The source made the active and inactive calls. No cut-off for these calls is given here.
Use one of these outcomes when replying: active, inactive

>>> class_assignment("O=C(N[C@@H]1CC[C@@]2(O)[C@H]3Cc4ccc(O)c5c4[C@@]2(CCN3CC2CC2)[C@H]1O5)c1cccc2c(C3CCCC3)c[nH]c12")
"inactive"
>>> class_assignment("O=C(N[C@@H]1CC[C@@]2(O)[C@H]3Cc4ccc(O)c5c4[C@@]2(CCN3CC2CC2)[C@H]1O5)c1cccc2c(-c3ccccc3)c[nH]c12")
"inactive"
>>> class_assignment("CC(C)c1c[nH]c2c(C(=O)N[C@H]3CC[C@@]4(O)[C@H]5Cc6ccc(O)c7c6[C@@]4(CCN5CC4CC4)[C@H]3O7)cccc12")
"inactive"

What call does the record list for O=C(N[C@@H]1CC[C@@]2(O)[C@H]3Cc4ccc(O)c5c4[C@@]2(CCN3CC2CC2)[C@H]1O5)c1cccc2cc(-c3ccccc3)[nH]c12 ?
inactive

Let us now turn to O=C(N[C@H]1CC[C@@]2(O)[C@H]3Cc4ccc(O)c5c4[C@@]2(CCN3CC2CC2)[C@H]1O5)c1cccc2c(Cl)c[nH]c12
inactive

* * *

Target: Mu-type opioid receptor (Mus musculus)
Experiment: Binding affinity to mouse mu opioid receptor expressed in CHO cell membrane assessed as [35S]GTPgammaS binding incubated for 1.5 hrs by liquid scintillation counter analysis
Outcome Measure: pEC50
Give bare numbers, as −log10 of the molar value.

Please state, for each entry, its recorded pEC50.
1. O=Cc1c[nH]c2c(C(=O)N[C@@H]3CC[C@@]4(O)[C@H]5Cc6ccc(O)c7c6[C@@]4(CCN5CC4CC4)[C@H]3O7)cccc12
2. CC(=O)c1c[nH]c2c(C(=O)N[C@@H]3CC[C@@]4(O)[C@H]5Cc6ccc(O)c7c6[C@@]4(CCN5CC4CC4)[C@H]3O7)cccc12
3. Cc1cc2cccc(C(=O)N[C@H]3CC[C@@]4(O)[C@H]5Cc6ccc(O)c7c6[C@@]4(CCN5CC4CC4)[C@H]3O7)c2[nH]1.Cl
4. N#Cc1cc2cccc(C(=O)N[C@H]3CC[C@@]4(O)[C@H]5Cc6ccc(O)c7c6[C@@]4(CCN5CC4CC4)[C@H]3O7)c2[nH]1
5. O=C(N[C@H]1CC[C@@]2(O)[C@H]3Cc4ccc(O)c5c4[C@@]2(CCN3CC2CC2)[C@H]1O5)c1cccc2c(Br)c[nH]c12
6. O=C(N[C@@H]1CC[C@@]2(O)[C@H]3Cc4ccc(O)c5c4[C@@]2(CCN3CC2CC2)[C@H]1O5)c1cccc2c([N+](=O)[O-])c[nH]c12
7. O=C(N[C@@H]1CC[C@@]2(O)[C@H]3Cc4ccc(O)c5c4[C@@]2(CCN3CC2CC2)[C@H]1O5)c1cccc2c(Br)c[nH]c12

1: 8.92; 2: 6.69; 3: 8.41; 4: 8.45; 5: 8.61; 6: 8.95; 7: 8.98

Please state, for each entry, its recorded pEC50.
1. N#Cc1c[nH]c2c(C(=O)N[C@H]3CC[C@@]4(O)[C@H]5Cc6ccc(O)c7c6[C@@]4(CCN5CC4CC4)[C@H]3O7)cccc12
2. CC(C)c1c[nH]c2c(C(=O)N[C@@H]3CC[C@@]4(O)[C@H]5Cc6ccc(O)c7c6[C@@]4(CCN5CC4CC4)[C@H]3O7)cccc12
3. O=C(N[C@@H]1CC[C@@]2(O)[C@H]3Cc4ccc(O)c5c4[C@@]2(CCN3CC2CC2)[C@H]1O5)c1cccc2c(C3CCCCC3)c[nH]c12
4. O=C(N[C@H]1CC[C@@]2(O)[C@H]3Cc4ccc(O)c5c4[C@@]2(CCN3CC2CC2)[C@H]1O5)c1cccc2c(C3CCCCC3)c[nH]c12
5. O=C(N[C@@H]1CC[C@@]2(O)[C@H]3Cc4ccc(O)c5c4[C@@]2(CCN3CC2CC2)[C@H]1O5)c1cccc2cc(-c3ccccc3)[nH]c12
6. CC(=O)Nc1c[nH]c2c(C(=O)N[C@H]3CC[C@@]4(O)[C@H]5Cc6ccc(O)c7c6[C@@]4(CCN5CC4CC4)[C@H]3O7)cccc12
7. O=C(N[C@H]1CC[C@@]2(O)[C@H]3Cc4ccc(O)c5c4[C@@]2(CCN3CC2CC2)[C@H]1O5)c1cccc2cc(Cl)[nH]c12

[8.60, 8.76, 7.68, 8.58, 8.26, 8.83, 8.74]

Please state, for each entry, its recorded pEC50.
1. CC(=O)c1c[nH]c2c(C(=O)N[C@H]3CC[C@@]4(O)[C@H]5Cc6ccc(O)c7c6[C@@]4(CCN5CC4CC4)[C@H]3O7)cccc12
2. N#Cc1c[nH]c2c(C(=O)N[C@@H]3CC[C@@]4(O)[C@H]5Cc6ccc(O)c7c6[C@@]4(CCN5CC4CC4)[C@H]3O7)cccc12
3. O=C(N[C@@H]1CC[C@@]2(O)[C@H]3Cc4ccc(O)c5c4[C@@]2(CCN3CC2CC2)[C@H]1O5)c1cccc2c(Cl)c[nH]c12
4. O=C(N[C@H]1CC[C@@]2(O)[C@H]3Cc4ccc(O)c5c4[C@@]2(CCN3CC2CC2)[C@H]1O5)c1cccc2c([N+](=O)[O-])c[nH]c12
5. Cc1c[nH]c2c(C(=O)N[C@H]3CC[C@@]4(O)[C@H]5Cc6ccc(O)c7c6[C@@]4(CCN5CC4CC4)[C@H]3O7)cccc12

1: 8.28; 2: 8.51; 3: 8.98; 4: 8.63; 5: 8.57

Please state, for each entry, its recorded pEC50.
1. N#Cc1cc2cccc(C(=O)N[C@@H]3CC[C@@]4(O)[C@H]5Cc6ccc(O)c7c6[C@@]4(CCN5CC4CC4)[C@H]3O7)c2[nH]1
2. CC(C)c1c[nH]c2c(C(=O)N[C@H]3CC[C@@]4(O)[C@H]5Cc6ccc(O)c7c6[C@@]4(CCN5CC4CC4)[C@H]3O7)cccc12
3. O=C(N[C@H]1CC[C@@]2(O)[C@H]3Cc4ccc(O)c5c4[C@@]2(CCN3CC2CC2)[C@H]1O5)c1cccc2c(-c3ccccc3)c[nH]c12
4. O=C(N[C@@H]1CC[C@@]2(O)[C@H]3Cc4ccc(O)c5c4[C@@]2(CCN3CC2CC2)[C@H]1O5)c1cccc2cc(Cl)[nH]c12
5. O=C(N[C@@H]1CC[C@@]2(O)[C@H]3Cc4ccc(O)c5c4[C@@]2(CCN3CC2CC2)[C@H]1O5)c1cccc2c(-c3ccccc3)c[nH]c12
6. O=C(N[C@H]1CC[C@@]2(O)[C@H]3Cc4ccc(O)c5c4[C@@]2(CCN3CC2CC2)[C@H]1O5)c1cccc2c(C3CCCC3)c[nH]c12

1. 8.42
2. 8.61
3. 8.73
4. 8.85
5. 8.75
6. 8.69

* * *

Molecular target: Mu-type opioid receptor (Mus musculus)
Test: Binding affinity to mouse mu opioid receptor expressed in CHO cell membrane assessed as stimulation of [35S]-GTPgammaS binding by measuring maximal efficacy incubated for 1.5 hrs by scintillation spectroscopy analysis relative DAMGO
Assay type: cell membranes
Cut-off 10% on Emax: below means Y, at or above means N.

>>> class_assignment("O=C(N[C@H]1CC[C@@]2(O)[C@H]3Cc4ccc(O)c5c4[C@@]2(CCN3CC2CC2)[C@H]1O5)c1cccc2c(C3CCCC3)c[nH]c12")
"N"

Find out if reported Emax for CC(=O)Nc1c[nH]c2c(C(=O)N[C@@H]3CC[C@@]4(O)[C@H]5Cc6ccc(O)c7c6[C@@]4(CCN5CC4CC4)[C@H]3O7)cccc12 is less than 10%
Y

* * *

Biological target: Kappa-type opioid receptor (Mus musculus, UniProt P33534)
pKi: −log10 of the molar value.
Label rule, in plain words: pKi of 9 and up is 1, under 9 is -1.

Study these solved cases before continuing.
>>> class_assignment("O=C(N[C@@H]1CC[C@@]2(O)[C@H]3Cc4ccc(O)c5c4[C@@]2(CCN3CC2CC2)[C@H]1O5)c1cccc2cc(Br)[nH]c12")
1
>>> class_assignment("CC(=O)Nc1c[nH]c2c(C(=O)N[C@H]3CC[C@@]4(O)[C@H]5Cc6ccc(O)c7c6[C@@]4(CCN5CC4CC4)[C@H]3O7)cccc12")
-1

Could you please find out whether CC(=O)c1c[nH]c2c(C(=O)N[C@@H]3CC[C@@]4(O)[C@H]5Cc6ccc(O)c7c6[C@@]4(CCN5CC4CC4)[C@H]3O7)cccc12 has pKi that meets 9 or exceeds it?
-1

Let us now turn to Cc1cc2cccc(C(=O)N[C@H]3CC[C@@]4(O)[C@H]5Cc6ccc(O)c7c6[C@@]4(CCN5CC4CC4)[C@H]3O7)c2[nH]1.Cl
-1

Let us now turn to O=C(N[C@H]1CC[C@@]2(O)[C@H]3Cc4ccc(O)c5c4[C@@]2(CCN3CC2CC2)[C@H]1O5)c1cccc2c(Br)c[nH]c12
-1

Each recorded value in this set is attributed to ChEMBL document CHEMBL5316274.
